- assay-procedure: chemical genetic growth profiling, strain panel (AID 1159580);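 note: tested at 20 µM; growth read once vehicle control cultures reached saturation at 30 °C; 1 = growth at the plate median or of vehicle wells; lower values mean less growth of the strain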
- measurement-parameters: S. cerevisiae deletion strains, growth OD, locus YJL154C, strain vps35, hits give low values
Hit rate of the full screen: of about 5,500 compounds, about 2,000 (36%) were called active. About 18% were inconclusive and are not listed. The list shows a part of the results.
Each entry below lists one item and its recorded normalized growth value.
readout-type: normalized growth

molecule: Nc1ncn[nH]1
measured: 1.02
//
molecule: C=CC[C@]1(O)CCC2C3CCC4=CC(=O)CCC4=C3C=C[C@@]21C (stereo partly drawn)
measured: 0.995
//
molecule: COc1ccc(C2CNC(=O)C2)cc1OC1CCCC1 (stereo not drawn)
measured: 1
//
molecule: CCN(CC)C(=O)N1CCN(C)CC1
measured: 0.983
//
molecule: CCC[C@H](N[C@@H](C)C(=O)N1[C@H](C(=O)O)C[C@@H]2CCCC[C@@H]21)C(=O)OCC
measured: 1.01
//
molecule: COc1ccc(C(CN(C)C)C2(O)CCCCC2)cc1 (stereo not drawn)
measured: 0.974
//
molecule: Nc1nc(=S)c2[nH]cnc2[nH]1
measured: 0.971
//
molecule: COC(=O)c1cc(=O)c(O)c2c(O)c(O)ccc2c1
measured: 1.02
